Biological target: KRAS G12D (Homo sapiens, UniProt P01116, G12D)
Sequence (P01116 1-188 isoform P01116-2 G12D): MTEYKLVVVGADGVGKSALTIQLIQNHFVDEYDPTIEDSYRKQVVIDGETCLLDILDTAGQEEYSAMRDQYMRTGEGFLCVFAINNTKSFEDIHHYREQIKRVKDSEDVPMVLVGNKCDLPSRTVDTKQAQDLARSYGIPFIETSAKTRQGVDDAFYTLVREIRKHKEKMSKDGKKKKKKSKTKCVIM
Assay: HTRF KRAS-SOS1 interaction assay, KRAS G12D
Details: binned ≤2 μM / >2 μM, read-out: Inhibition of KRAS G12D (IC50)
Source text: This assay can be also used to assess a selective inhibition or reduction of signaling output of a mutant Ras protein relative to a wildtype, or relative to a different mutant Ras protein. For example, the equilibrium interaction of wildtype KRAS or K-Ras mutant (e.g., wildtype or a mutant thereof) with SOS1 (e.g., hSOS1) can be assessed as a proxy or an indication for the ability of a subject compound to bind and inhibit Ras protein. […]
pIC50: −log10 of the molar value.
EXPERIMENTAL ENDPOINT: pIC50

Some compounds with known pIC50 results, for comparison:
COMPOUND	pIC50
N#Cc1c(N)sc2c(F)ccc(-c3c(C(F)(F)F)c4c5c(nc(OC[C@@]67CCCN6CC(=C(F)F)C7)nc5c3F)N([C@H](CCC(F)(F)F)c3cccnc3N)CCO4)c12	≥ 5.70
C[C@H](c1cccnc1N)N1CCOc2c(Cl)c(-c3ccc(F)c4sc(N)c(C#N)c34)c(F)c3nc(OC[C@]45CCCN4[C@H](CN)CC5)nc1c23	≥ 5.70
CC(Oc1nc2c3c(c(Cl)c(-c4ccc(F)c5sc(N)c(C#N)c45)c(F)c3n1)OCCN2[C@H](C)c1cccnc1N)[C@@H]1CC(F)(F)CN1C (single isomer, unassigned) [Compound 659]	< 5.70
CO[C@H]1CCN(C)[C@@H]1[C@H](C)Oc1nc2c3c(c(C(F)(F)F)c(-c4ccc(F)c5sc(N)c(C#N)c45)c(F)c3n1)OCCN2[C@H](C)c1cccnc1N	≥ 5.70

Okay, now this compound:
pIC50 reported for this compound C[C@H](c1cc(F)cnc1N)N1CCOc2c(C(F)(F)F)c(-c3ccc(F)c4sc(N)c(C#N)c34)c(F)c3nc(OC[C@@]45CCCN4C[C@@]4(CC4(F)F)C5)nc1c23 : ≥ 5.70

====

Target: KRAS G12D (Homo sapiens, UniProt P01116, G12D)
Construct: made in house; host or cells: E. coli, e.g. BL21 (DE3)
Test: HTRF KRAS-SOS1 interaction assay, KRAS G12D
Format: biochemical
Settings: binned ≤2 μM / >2 μM, read-out: Inhibition of KRAS G12D (IC50)
Overview of recorded IC50 for various molecules

Some solved entries appear below for comparison.
MOLECULE	EXPERIMENTAL TARGET	IC50
N#Cc1c(N)sc2c(F)ccc(-c3c(C(F)(F)F)c4c5c(nc(OC[C@@]67CCCN6C[C@H](F)C7)nc5c3F)N([C@H](CCC3CC(F)(F)C3)c3cccnc3N)CCO4)c12 (single isomer, unassigned) [Compound 724]	KRAS G12D (Homo sapiens, UniProt P01116, G12D)	≤ 2000 nM
C#Cc1c(F)ccc2cc(O)cc(-c3nc4c5c(nc(OC[C@@]67CCCN6C[C@H](F)C7)nc5c3F)N(C(C)c3cccnc3N)CCO4)c12 (mixture of isomers) [Compound 742]	KRAS G12D (Homo sapiens, UniProt P01116, G12D)	≤ 2000 nM
C[C@H](c1cc(Cl)cnc1N)N1CCOc2c(C(F)(F)F)c(-c3ccc(F)c4sc(N)c(C#N)c34)c(F)c3nc(OC[C@@]45CCCN4C[C@H](F)C5)nc1c23 (single isomer, unassigned) [Compound 766]	KRAS G12D (Homo sapiens, UniProt P01116, G12D)	≤ 2000 nM
Cc1ccc([C@@H](C)N2CCOc3c(Cl)c(-c4ccc(F)c5sc(N)c(C#N)c45)c(F)c4nc(OC[C@@]56CCCN5C[C@H](F)C6)nc2c34)c(N)n1 [Compound 736]	KRAS G12D (Homo sapiens, UniProt P01116, G12D)	≤ 2000 nM

Note to self: IC50 recorded for C=CC(F)(F)[C@H](c1cccnc1N)N1CCOc2c(Cl)c(-c3ccc(F)c4sc(N)c(C#N)c34)c(F)c3nc(OC[C@@]45CCCN4C[C@H](F)C5)nc1c23 [Compound 639] was ≤ 2000 nM
